Measured values drawn from ChEMBL document CHEMBL3886525 for this set.

# ASSAY TARGET: Serine/threonine-protein kinase pim-1 (Homo sapiens, UniProt P11309)
# Sequence (P11309 whole entry): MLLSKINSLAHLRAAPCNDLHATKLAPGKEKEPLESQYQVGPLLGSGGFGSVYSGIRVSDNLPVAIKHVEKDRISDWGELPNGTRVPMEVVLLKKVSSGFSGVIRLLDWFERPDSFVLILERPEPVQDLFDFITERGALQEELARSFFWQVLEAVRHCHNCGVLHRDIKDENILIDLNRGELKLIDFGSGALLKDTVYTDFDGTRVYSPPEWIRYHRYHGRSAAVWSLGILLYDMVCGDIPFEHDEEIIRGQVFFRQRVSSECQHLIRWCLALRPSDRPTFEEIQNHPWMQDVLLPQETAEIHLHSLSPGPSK
READOUT: Ki (nM)

a = c1ccc(-c2n[nH]c3cnc(-c4cccnc4)cc23)cc1
b = Cc1n[nH]c2cnc(-c3cccc(F)c3)cc12
c = N[C@@H]1CCN(c2nc(-c3n[nH]c4cnc(-c5cccnc5)cc34)ccc2Br)C1
d = c1cncc(-c2cc3c(-c4cccc(N5CCOCC5)n4)n[nH]c3cn2)c1
Exercise: Sort key = Ki. Sort direction = ascending. Apply to the list above. Use the labels to give the requested order.
Solution: c, d, a, b
(c: 0.118 nM, d: 0.262 nM, a: 9.65 nM, b: 2200 nM)
